These data points were gathered from ChEMBL document CHEMBL3885861.

For each of the molecules below, state its TG.
# Organism: Rattus norvegicus
# method-notes: Open TG-GATES - Regimen: Daily Repeat
# Type: toxicity, organism-based, Sprague-Dawley
# Design: regimen Daily Repeat, gender Male, age 6 weeks
# applied-conditions: in vivo, po, 0 mg/kg, […], tissue Plasma, route gavage, dose level Control, time 14 day
Numeric only. Scale: mg/dL

Q: Please report the measured TG for `Clc1ccccc1CN1CCc2sccc2C1`
A: 114

Q: Recall and state the measured TG for `O=C(O)c1cn(C2CC2)c2cc(N3CCNCC3)c(F)cc2c1=O` .
A: 150.6

Q: Item `O=C(O)c1cc(/N=N/c2ccc(S(=O)(=O)Nc3ccccn3)cc2)ccc1O` : provide TG
A: 175.8

Q: Using the record for CCc1cc(C(N)=S)ccn1 [ETHIONAMIDE] , state its measured TG.
A: 111.6

Q: Identify measured TG corresponding to `COc1ccc(Cc2nccc3cc(OC)c(OC)cc23)cc1OC`
A: 119.2

---

# Organism: Rattus norvegicus
# method-notes: Open TG-GATES - Regimen: Single
# Type: toxicity, organism-based, Sprague-Dawley
# Parameters: regimen Single, gender Male, age 6 weeks
# applied-conditions: in vivo, po, 0 mg/kg, 24 h, tissue Plasma, route gavage, dose level Control
For each record, check the reported CRE: if it is below 0.4 mg/dL write rule met, else write rule not met.

Q: A record lists `CN(C)CCC=C1c2ccccc2CCc2ccccc21` . Is its CRE below 0.4 mg/dL?
A: rule met

Q: Criterion: CRE strictly below 0.4 mg/dL. Is it met by `O=C(O)c1cn(C2CC2)c2cc(N3CCNCC3)c(F)cc2c1=O` ?
A: rule not met

Q: hey, is CRE for CSc1ccc2c(c1)N(CCC1CCCCN1C)c1ccccc1S2 (stereo not given) lower than 0.4 mg/dL or not?
A: rule not met

Q: In plain terms, does `COc1ccc(Cc2nccc3cc(OC)c(OC)cc23)cc1OC` come in under 0.4 mg/dL for CRE?
A: rule met

Q: hey, is CRE for `COc1cc2c(c3oc(=O)c4c(c13)CCC4=O)[C@@H]1C=CO[C@@H]1O2` lower than 0.4 mg/dL or not?
A: rule met

Q: Lab log: compare recorded CRE with 0.4 mg/dL; is it strictly lower for CCc1cc(C(N)=S)ccn1 [ETHIONAMIDE] ?
A: rule not met

Q: Would you kindly verify if CRE of `C[C@H](CS)C(=O)N1CCC[C@H]1C(=O)O` is strictly less than 0.4 mg/dL?
A: rule not met

---

# Organism: Rattus norvegicus
# method-notes: Open TG-GATES - Regimen: Single
# Type: toxicity, organism-based, Sprague-Dawley
# Parameters: regimen Single, gender Male, age 6 weeks
# applied-conditions: in vivo, po, 1000 mg/kg, 9 h, tissue Plasma, route gavage, dose level High
I'd be grateful if you could share measured GLC for these entries.
State the result as a value with its unit after it.

Q: Give GLC for the following molecule: `Clc1ccccc1CN1CCc2sccc2C1`
A: 201.4 mg/dL

Q: Supply reported GLC belonging to this molecule: CCc1cc(C(N)=S)ccn1 [ETHIONAMIDE]
A: 202 mg/dL

Q: Annotate the molecule `O=C(O)c1cc(/N=N/c2ccc(S(=O)(=O)Nc3ccccn3)cc2)ccc1O` with its measured GLC.
A: 210.6 mg/dL

Q: Fill in reported GLC for this entry: `O=C(O)c1cn(C2CC2)c2cc(N3CCNCC3)c(F)cc2c1=O`
A: 192.4 mg/dL

Q: Give me measured GLC, please, for this molecule: `C[C@H](CS)C(=O)N1CCC[C@H]1C(=O)O`
A: 192.2 mg/dL

---

# Organism: Rattus norvegicus
# method-notes: Open TG-GATES - Regimen: Daily Repeat
# Format: toxicity, organism-based, Sprague-Dawley
# Parameters: regimen Daily Repeat, gender Male, age 6 weeks
# applied-conditions: in vivo, po, 0 mg/kg, […], tissue Blood, route gavage, dose level Control, time 14 day
Exercise: for every item that follows, state its recorded MCH.
Include the unit right after the number.

Q: Identify MCH associated with the molecule `CN(C)CCC=C1c2ccccc2CCc2ccccc21`
A: 20.9 pg

Q: Using the record for `CCCC(CCC)C(=O)O` , state its measured MCH.
A: 20.7 pg

Q: Given the molecule `COc1ccc(Cc2nccc3cc(OC)c(OC)cc23)cc1OC` , write its reported MCH.
A: 20.7 pg

Q: Give recorded MCH. `COc1ccc2c(c1)c(CC(=O)O)c(C)n2C(=O)c1ccc(Cl)cc1`
A: 20.1 pg

Q: Hello, please tell me recorded MCH for this one: `Cn1c(=O)c2[nH]cnc2n(C)c1=O.O`
A: 21 pg

Q: Return reported MCH. Input molecule: NC(=O)N1c2ccccc2C=Cc2ccccc21 [CARBAMAZEPINE]
A: 20.7 pg

Q: Give the reported MCH for this molecule. CSc1ccc2c(c1)N(CCC1CCCCN1C)c1ccccc1S2 (centres undefined)
A: 20.6 pg

Q: Answer with the recorded MCH of `Clc1ccccc1CN1CCc2sccc2C1` only.
A: 21.1 pg

Q: Retrieve MCH measured for `O=C(O)c1cc(/N=N/c2ccc(S(=O)(=O)Nc3ccccn3)cc2)ccc1O` and print it.
A: 20.9 pg

Q: Kindly indicate its recorded MCH. Item: `CC(=O)Oc1ccccc1C(=O)O`
A: 20.8 pg

Q: Please report MCH for the following molecule: `C[C@H](CS)C(=O)N1CCC[C@H]1C(=O)O`
A: 20.5 pg

Q: Report MCH for `O=C(O)c1cn(C2CC2)c2cc(N3CCNCC3)c(F)cc2c1=O`
A: 21 pg

Q: Return reported MCH. Input molecule: CCc1cc(C(N)=S)ccn1 [ETHIONAMIDE]
A: 20.5 pg

Q: Fill in reported MCH for this entry: `NC(=O)N/N=C/c1ccc([N+](=O)[O-])o1`
A: 20.7 pg

---

# Species on record: Rattus norvegicus
# method-notes: Open TG-GATES - Regimen: Daily Repeat
# Format: toxicity, organism-based, Sprague-Dawley
# Parameters: regimen Daily Repeat, gender Male, age 6 weeks
# applied-conditions: in vivo, po, 0 mg/kg, […], route gavage, dose level Control, time 14 day
measured-property: TERMINAL_BW (g)
// units = g; emit number, no label

Q: Respond only with TERMINAL_BW recorded for CN(C)CCC=C1c2ccccc2CCc2ccccc21 [AMITRIPTYLINE]
A: 318.6

Q: Fill in TERMINAL_BW for record CCCC(CCC)C(=O)O [VALPROIC ACID]
A: 316.1

Q: Supply reported TERMINAL_BW belonging to this compound: COc1ccc2c(c1)c(CC(=O)O)c(C)n2C(=O)c1ccc(Cl)cc1 [INDOMETHACIN]
A: 339.4

Q: Give me measured TERMINAL_BW, please, for this compound: O=C(O)c1cn(C2CC2)c2cc(N3CCNCC3)c(F)cc2c1=O [CIPROFLOXACIN]
A: 285

Q: State its TERMINAL_BW for this compound: CO[C@H]1/C=C/O[C@@]2(C)Oc3c(C)c(O)c4c(O)c(c(/C=N/N5CCN(C)CC5)c(O)c4c3C2=O)NC(=O)/C(C)=C\C=C\[C@H](C)[C@H](O)[C@@H](C)[C@@H](O)[C@@H](C)[C@H](OC(C)=O)[C@@H]1C [RIFAMPIN]
A: 316.4

Q: For the compound NC(=O)N/N=C/c1ccc([N+](=O)[O-])o1 [NITROFURAZONE] , report TERMINAL_BW.
A: 324.7

Q: Write down TERMINAL_BW measured for item C[C@H](CS)C(=O)N1CCC[C@H]1C(=O)O [CAPTOPRIL]
A: 333.4

Q: Identify TERMINAL_BW associated with the compound NC(=O)N1c2ccccc2C=Cc2ccccc21 [CARBAMAZEPINE]
A: 321.1

Q: Specify measured TERMINAL_BW for Clc1ccccc1CN1CCc2sccc2C1 [TICLOPIDINE] .
A: 313.6

---

# Species: Rattus norvegicus
# method-notes: Open TG-GATES - Regimen: Single
# Assay type: toxicity, organism-based, Sprague-Dawley
# Design: regimen Single, gender Male, age 6 weeks
# applied-conditions: in vivo, po, 1000 mg/kg, 3 h, tissue Plasma, route gavage, dose level High
Please provide measured K for the entries that follow.

Q: State its K for this molecule: CCc1cc(C(N)=S)ccn1 [ETHIONAMIDE]
A: 4 meq/L

Q: Look up and state reported K for `O=C(O)c1cc(/N=N/c2ccc(S(=O)(=O)Nc3ccccn3)cc2)ccc1O`
A: 4 meq/L

Q: Assign K to the following record: `O=C(O)c1cn(C2CC2)c2cc(N3CCNCC3)c(F)cc2c1=O`
A: 4.7 meq/L

Q: Please supply the value of reported K for the item `Clc1ccccc1CN1CCc2sccc2C1`
A: 3.8 meq/L

Q: Look up and report measured K for this entry: `C[C@H](CS)C(=O)N1CCC[C@H]1C(=O)O`
A: 5 meq/L
